- run description: in vitro
- condition parameters: human, SH-SY5Y cells
- Description: Cytotoxicity against human SH-SY5Y cells assessed as cell viability at 40 uM after 24 hrs by MTT assay
parameter measured: viability at 24 h, 40 µM (%)
Express the result in % but write the number alone.

{"input smiles": "Cc1ccccc1CN1CCC(CNc2nc(-c3ccc(Cl)cc3)c(-c3ccc(Cl)cc3)s2)CC1", "viability at 24 h, 40 µM [%]": 95.4}
{"input smiles": "COc1ccc(-c2nc(NC(=O)C3CCN(Cc4c(F)cccc4Cl)CC3)sc2-c2ccc(OC)cc2)cc1", "viability at 24 h, 40 µM [%]": 92.9}
{"input smiles": "COc1ccc(-c2nc(NC(=O)C3CCN(Cc4ccccc4C(F)(F)F)CC3)sc2-c2ccc(OC)cc2)cc1", "viability at 24 h, 40 µM [%]": 92.4}
{"input smiles": "Cc1ccc(-c2nc(NCC3CCN(Cc4cc(F)cc(F)c4)CC3)sc2-c2ccc(C)cc2)cc1", "viability at 24 h, 40 µM [%]": 95.2}
{"input smiles": "Cc1ccc(-c2nc(NCC3CCN(Cc4ccccc4C(F)(F)F)CC3)sc2-c2ccc(C)cc2)cc1", "viability at 24 h, 40 µM [%]": 93.5}
{"input smiles": "COc1ccc(-c2nc(NC3CCN(Cc4ccc(C)cc4)CC3)sc2-c2ccc(OC)cc2)cc1", "viability at 24 h, 40 µM [%]": 95.4}
{"input smiles": "COc1ccc(-c2nc(NC3CCN(Cc4ccc(C(F)(F)F)cc4)CC3)sc2-c2ccc(OC)cc2)cc1", "viability at 24 h, 40 µM [%]": 94.5}
{"input smiles": "COc1ccc(-c2nc(NCC3CCN(Cc4ccccc4C)CC3)sc2-c2ccc(OC)cc2)cc1", "viability at 24 h, 40 µM [%]": 91.6}

// recorded viability at 24 h, 40 µM for COc1ccc(-c2nc(NC(=O)C3CCN(Cc4cccc(F)c4)CC3)sc2-c2ccc(OC)cc2)cc1 : 94

// recorded viability at 24 h, 40 µM for Fc1ccc(CN2CCC(Nc3nc(-c4ccc(Cl)cc4)c(-c4ccc(Cl)cc4)s3)CC2)c(Cl)c1 : 94.2

// recorded viability at 24 h, 40 µM for Fc1ccc(CN2CCC(CNc3nc(-c4ccc(Cl)cc4)c(-c4ccc(Cl)cc4)s3)CC2)c(Cl)c1 : 92.7

// recorded viability at 24 h, 40 µM for Fc1cc(F)cc(CN2CCC(CNc3nc(-c4ccc(Cl)cc4)c(-c4ccc(Cl)cc4)s3)CC2)c1 : 92.4

// recorded viability at 24 h, 40 µM for COc1ccc(-c2nc(NCC3CCN(Cc4c(F)cccc4Cl)CC3)sc2-c2ccc(OC)cc2)cc1 : 94.2

// recorded viability at 24 h, 40 µM for COc1ccc(CN2CCC(Nc3nc(-c4ccc(OC)cc4)c(-c4ccc(OC)cc4)s3)CC2)cc1 : 92.1

// recorded viability at 24 h, 40 µM for O=C(Nc1nc(-c2ccc(Cl)cc2)c(-c2ccc(Cl)cc2)s1)C1CCN(Cc2cccc(F)c2)CC1 : 93.6

// recorded viability at 24 h, 40 µM for O=C(Nc1nc(-c2ccc(Cl)cc2)c(-c2ccc(Cl)cc2)s1)C1CCN(Cc2cc(F)cc(F)c2)CC1 : 95.6

// recorded viability at 24 h, 40 µM for Cc1ccc(-c2nc(NCC3CCN(Cc4ccc(F)cc4)CC3)sc2-c2ccc(C)cc2)cc1 : 91.8

// recorded viability at 24 h, 40 µM for Cc1ccc(-c2nc(NCC3CCN(Cc4ccccc4C)CC3)sc2-c2ccc(C)cc2)cc1 : 91.4

// recorded viability at 24 h, 40 µM for COc1ccc(-c2nc(NCC3CCN(Cc4ccccc4C(F)(F)F)CC3)sc2-c2ccc(OC)cc2)cc1 : 94.2

* * *

- assayed target: Acetylcholinesterase (Homo sapiens, UniProt P22303)
- Sequence (P22303 whole entry): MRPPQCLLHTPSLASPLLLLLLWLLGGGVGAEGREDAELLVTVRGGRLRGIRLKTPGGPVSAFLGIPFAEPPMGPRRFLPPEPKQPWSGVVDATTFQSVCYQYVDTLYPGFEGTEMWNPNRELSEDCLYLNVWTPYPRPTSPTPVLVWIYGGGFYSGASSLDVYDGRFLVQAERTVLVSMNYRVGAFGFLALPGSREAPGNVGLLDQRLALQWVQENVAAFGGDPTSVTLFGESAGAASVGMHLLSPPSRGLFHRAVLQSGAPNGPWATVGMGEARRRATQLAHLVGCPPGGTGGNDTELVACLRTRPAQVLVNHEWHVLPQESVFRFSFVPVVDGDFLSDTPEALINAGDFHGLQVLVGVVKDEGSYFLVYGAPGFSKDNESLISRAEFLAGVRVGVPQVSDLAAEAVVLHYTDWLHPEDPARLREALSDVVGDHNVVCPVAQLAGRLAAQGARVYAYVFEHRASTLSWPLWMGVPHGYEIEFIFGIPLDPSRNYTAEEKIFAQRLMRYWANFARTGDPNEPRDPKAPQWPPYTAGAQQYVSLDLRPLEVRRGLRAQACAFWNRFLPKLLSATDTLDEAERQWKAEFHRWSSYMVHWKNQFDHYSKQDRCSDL
- condition parameters: at 10 µM
- Description: Inhibition of human erythrocyte AChE-induced Abeta (1 to 42) aggregation at 10 uM incubated for 24 hrs by thioflavin-T fluorescence assay
parameter measured: inhibition (%)
Express the result in % but write the number alone.

{"input smiles": "Cc1ccccc1CN1CCC(CNc2nc(-c3ccc(Cl)cc3)c(-c3ccc(Cl)cc3)s2)CC1", "assayed target": "Acetylcholinesterase (Homo sapiens, UniProt P22303)", "parameter measured": "inhibition", "units of measure": "%", "endpoint value": 23.3}

// recorded inhibition for COc1ccc(-c2nc(NC(=O)C3CCN(Cc4ccccc4C(F)(F)F)CC3)sc2-c2ccc(OC)cc2)cc1 : 14.5

// recorded inhibition for Cc1ccc(-c2nc(NCC3CCN(Cc4ccccc4C)CC3)sc2-c2ccc(C)cc2)cc1 : 16.2

// recorded inhibition for COc1ccc(-c2nc(NC(=O)C3CCN(Cc4c(F)cccc4Cl)CC3)sc2-c2ccc(OC)cc2)cc1 : 16.6

// recorded inhibition for COc1ccc(CN2CCC(Nc3nc(-c4ccc(OC)cc4)c(-c4ccc(OC)cc4)s3)CC2)cc1 : 11.4

// recorded inhibition for Fc1cc(F)cc(CN2CCC(CNc3nc(-c4ccc(Cl)cc4)c(-c4ccc(Cl)cc4)s3)CC2)c1 : 19.4

// recorded inhibition for COc1ccc(-c2nc(NC(=O)C3CCN(Cc4cccc(F)c4)CC3)sc2-c2ccc(OC)cc2)cc1 : 21.2

// recorded inhibition for O=C(Nc1nc(-c2ccc(Cl)cc2)c(-c2ccc(Cl)cc2)s1)C1CCN(Cc2cc(F)cc(F)c2)CC1 : 12

* * *

- run description: Terminal half life in Wistar rat at 5 mg/kg, po administered as a single dose by HPLC analysis
- Type: ADME, organism-based
- condition parameters: in vivo, read-out: beta t1/2 (converted)
parameter measured: half-life
Record the result as number plus unit.

// recorded half-life for Cc1ccc(-c2nc(NCC3CCN(Cc4cc(F)cc(F)c4)CC3)sc2-c2ccc(C)cc2)cc1 : 19.4 h

* * *

- run description: AUC(0 to 8 hrs) in Wistar rat at 5 mg/kg, po administered as a single dose by HPLC analysis
- Assay type: ADME, organism-based
- Set-up: time < 6 hr, dose 5 mg/kg, route oral
- condition parameters: in vivo
parameter measured: AUC(0-t) at 6 h (ng·h/mL)
Express the result in ng·h/mL but write the number alone.

// recorded AUC(0-t) at 6 h for Cc1ccc(-c2nc(NCC3CCN(Cc4cc(F)cc(F)c4)CC3)sc2-c2ccc(C)cc2)cc1 : 587

* * *

- assayed target: Cholinesterase (Equus caballus, UniProt P81908)
- Sequence (P81908 whole entry): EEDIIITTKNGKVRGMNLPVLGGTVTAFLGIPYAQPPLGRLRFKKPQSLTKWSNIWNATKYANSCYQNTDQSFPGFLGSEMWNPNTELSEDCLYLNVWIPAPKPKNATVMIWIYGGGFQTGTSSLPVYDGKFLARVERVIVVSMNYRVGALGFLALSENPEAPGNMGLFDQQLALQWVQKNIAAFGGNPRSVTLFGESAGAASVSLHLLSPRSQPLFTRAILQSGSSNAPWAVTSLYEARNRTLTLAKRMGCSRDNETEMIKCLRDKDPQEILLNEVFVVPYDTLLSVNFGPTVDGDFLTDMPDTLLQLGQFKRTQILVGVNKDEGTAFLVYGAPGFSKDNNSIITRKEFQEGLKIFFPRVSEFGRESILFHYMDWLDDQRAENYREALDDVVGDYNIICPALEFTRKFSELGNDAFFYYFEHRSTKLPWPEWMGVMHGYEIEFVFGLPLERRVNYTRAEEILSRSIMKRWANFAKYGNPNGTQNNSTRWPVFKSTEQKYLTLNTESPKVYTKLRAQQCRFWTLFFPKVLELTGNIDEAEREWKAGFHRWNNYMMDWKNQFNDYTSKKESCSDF
- run description: Inhibition of equine serum BuChE using BTCI as substrate preincubated for 30 mins followed by substrate addition measured after 30 mins by Ellman assay
# reported IC50; entries follow
Express the result in nM but write the number alone.

{"input smiles": "COc1ccc(-c2nc(NC(=O)C3CCN(Cc4ccccc4C(F)(F)F)CC3)sc2-c2ccc(OC)cc2)cc1", "IC50 / nM": 1920}
{"input smiles": "Cc1ccc(-c2nc(NC(=O)C3CCN(Cc4cc(F)cc(F)c4)CC3)sc2-c2ccc(C)cc2)cc1", "IC50 / nM": 3510}
{"input smiles": "Cc1ccccc1CN1CCC(C(=O)Nc2nc(-c3ccc(Cl)cc3)c(-c3ccc(Cl)cc3)s2)CC1", "IC50 / nM": 1040}
{"input smiles": "O=C(Nc1nc(-c2ccc(Cl)cc2)c(-c2ccc(Cl)cc2)s1)C1CCN(Cc2cccc(F)c2)CC1", "IC50 / nM": 720}
{"input smiles": "COc1ccc(CN2CCC(Nc3nc(-c4ccc(OC)cc4)c(-c4ccc(OC)cc4)s3)CC2)cc1", "IC50 / nM": 2530}

Could you now look at the following molecule, please?
// recorded IC50 for COc1ccc(CN2CCC(Nc3nc(-c4ccc(Cl)cc4)c(-c4ccc(Cl)cc4)s3)CC2)cc1 : 1570

* * *

- run description: Permeability of the compound at 100 ug/ml incubated for 120 mins by PAMPA
- Format: ADME
- condition parameters: read-out: Peff
# reported Papp at 2 h, 100 ug/ml; entries follow
Express the result in ×10⁻⁶ cm/s but write the number alone.

// solved cases for Papp at 2 h, 100 ug/ml follow
{"input smiles": "Fc1ccc(CN2CCC(Nc3nc(-c4ccc(Cl)cc4)c(-c4ccc(Cl)cc4)s3)CC2)c(Cl)c1", "Papp at 2 h, 100 ug/ml, ×10⁻⁶ cm/s": 8.4}
{"input smiles": "COc1ccc(-c2nc(NC(=O)C3CCN(Cc4cccc(F)c4)CC3)sc2-c2ccc(OC)cc2)cc1", "Papp at 2 h, 100 ug/ml, ×10⁻⁶ cm/s": 12.5}
{"input smiles": "Cc1ccc(-c2nc(NCC3CCN(Cc4ccccc4C)CC3)sc2-c2ccc(C)cc2)cc1", "Papp at 2 h, 100 ug/ml, ×10⁻⁶ cm/s": 10.6}
{"input smiles": "Cc1ccc(-c2nc(NCC3CCN(Cc4ccccc4C(F)(F)F)CC3)sc2-c2ccc(C)cc2)cc1", "Papp at 2 h, 100 ug/ml, ×10⁻⁶ cm/s": 12.8}
{"input smiles": "Fc1ccc(CN2CCC(CNc3nc(-c4ccc(Cl)cc4)c(-c4ccc(Cl)cc4)s3)CC2)c(Cl)c1", "Papp at 2 h, 100 ug/ml, ×10⁻⁶ cm/s": 13.2}
{"input smiles": "Cc1ccc(-c2nc(NCC3CCN(Cc4ccc(F)cc4)CC3)sc2-c2ccc(C)cc2)cc1", "Papp at 2 h, 100 ug/ml, ×10⁻⁶ cm/s": 10.1}

// recorded Papp at 2 h, 100 ug/ml for COc1ccc(-c2nc(NC(=O)C3CCN(Cc4c(F)cccc4Cl)CC3)sc2-c2ccc(OC)cc2)cc1 : 8.2

// recorded Papp at 2 h, 100 ug/ml for Cc1ccccc1CN1CCC(CNc2nc(-c3ccc(Cl)cc3)c(-c3ccc(Cl)cc3)s2)CC1 : 8.8

// recorded Papp at 2 h, 100 ug/ml for COc1ccc(-c2nc(NC3CCN(Cc4ccc(C(F)(F)F)cc4)CC3)sc2-c2ccc(OC)cc2)cc1 : 8.6

// recorded Papp at 2 h, 100 ug/ml for O=C(Nc1nc(-c2ccc(Cl)cc2)c(-c2ccc(Cl)cc2)s1)C1CCN(Cc2cccc(F)c2)CC1 : 15.9

// recorded Papp at 2 h, 100 ug/ml for Fc1cc(F)cc(CN2CCC(CNc3nc(-c4ccc(Cl)cc4)c(-c4ccc(Cl)cc4)s3)CC2)c1 : 12.5

// recorded Papp at 2 h, 100 ug/ml for COc1ccc(-c2nc(NC(=O)C3CCN(Cc4ccccc4C(F)(F)F)CC3)sc2-c2ccc(OC)cc2)cc1 : 12.3

// recorded Papp at 2 h, 100 ug/ml for COc1ccc(-c2nc(NCC3CCN(Cc4ccccc4C(F)(F)F)CC3)sc2-c2ccc(OC)cc2)cc1 : 8.4

// recorded Papp at 2 h, 100 ug/ml for COc1ccc(-c2nc(NCC3CCN(Cc4ccccc4C)CC3)sc2-c2ccc(OC)cc2)cc1 : 12.3

// recorded Papp at 2 h, 100 ug/ml for O=C(Nc1nc(-c2ccc(Cl)cc2)c(-c2ccc(Cl)cc2)s1)C1CCN(Cc2cc(F)cc(F)c2)CC1 : 8.8

Source: ChEMBL document CHEMBL4477206
